- Tested on: FME
- ASSAY_INFO: Aerobic cytotoxicity against human melanoma FME cells in a growth inhibition microassay
- Assay type: functional
// reported Hypersensitivity factor for each item listed
MEASUREMENT_KIND: Hypersensitivity factor

COMPOUND	MEASUREMENT_KIND	ENDPOINT_RESULT
Cc1ncc([N+](=O)[O-])n1CCNC(=O)CCCn1ccnc1[N+](=O)[O-]	Hypersensitivity factor	4.6
Cc1ncc([N+](=O)[O-])n1CCNC(=O)CCCCn1ccnc1[N+](=O)[O-]	Hypersensitivity factor	3.5
O=C(CCCn1ccnc1[N+](=O)[O-])NCCn1ccnc1	Hypersensitivity factor	3
Cc1ncc([N+](=O)[O-])n1CCO	Hypersensitivity factor	1
Cc1ncc([N+](=O)[O-])n1CCNC(=O)CCn1ccnc1[N+](=O)[O-]	Hypersensitivity factor	2.9
Cc1ncc([N+](=O)[O-])n1CCNC(=O)Cn1ccnc1[N+](=O)[O-]	Hypersensitivity factor	2.1
O=[N+]([O-])c1nccn1CC(O)CNCCBr (stereo unspecified)	Hypersensitivity factor	1
COCC(O)Cn1ccnc1[N+](=O)[O-] (stereo unspecified)	Hypersensitivity factor	1.9
Cc1ncc([N+](=O)[O-])n1CCNC(=O)Cn1c([N+](=O)[O-])cnc1C	Hypersensitivity factor	2.3
O=C(CCn1ccnc1[N+](=O)[O-])NCCCn1ccnc1[N+](=O)[O-]	Hypersensitivity factor	3.9
